Hey, just so you know, these numbers are from patent US7994326B2.

Molecular target: rat nNOS (Rattus norvegicus)
Construct: made in house; host or cells: E. coli (plasmid pCWnNOS)
Assay: NOS enzyme inhibitory assay (hemoglobin capture), nNOS
Format: biochemical
Conditions: Table 1a; apparent Ki calculated from IC50, Km […]; read-out: calc. Ki nNOS
Measured Property: pKi
Units for pKi: none; it is -log10 of a concentration expressed in mol/L.

Below, each entry is followed by its recorded pKi result.
Task: API: value(readout=pKi, system=rat nNOS (Rattus norvegicus)) for record Cl.Cl.Cl.Nc1cccc(CC2CNCC2NCCCc2ccccc2)n1 (racemic)
Result: 4.88

Task: API: value(readout=pKi, system=rat nNOS (Rattus norvegicus)) for record Nc1cccc(CC2CNCC2NCC(N)Cc2ccccc2)n1 (racemic) [Compound P-16]
Result: 4.86

Task: API: value(readout=pKi, system=rat nNOS (Rattus norvegicus)) for record Cl.Cl.Cl.Nc1cccc(C[C@H]2CN(Cc3ccccc3)C[C@H]2NCCCc2ccccc2)n1 (racemic)
Result: 4.32

---
Task: API: value(readout=pKi, system=rat nNOS (Rattus norvegicus)) for record Cc1cc(N)nc(C[C@H]2CNC[C@H]2NCCN)c1.Cl.Cl.Cl.Cl (racemic)
Result: 7.02

Task: API: value(readout=pKi, system=rat nNOS (Rattus norvegicus)) for record Nc1cccc(CC2CNCC2NC2CCNC2)n1 (racemic) [Compound P-20]
Result: 4.89

Task: API: value(readout=pKi, system=rat nNOS (Rattus norvegicus)) for record Nc1cccc(CC2CNCC2NCC(N)Cc2ccccc2)n1 (racemic) [Compound P-32]
Result: 5.64

Task: API: value(readout=pKi, system=rat nNOS (Rattus norvegicus)) for record Cl.Cl.Cl.Cl.NCCN1CC(Cc2cccc(N)n2)C(NCCCc2ccccc2)C1 (racemic) [Compound P-7]
Result: 5.40

Task: API: value(readout=pKi, system=rat nNOS (Rattus norvegicus)) for record Cl.Cl.Cl.Cl.Nc1cccc(CC2CNCC2NCC2CCCN2)n1 (centres unmarked) [Compound P-25]
Result: 5.61

* * *

Target: rat nNOS (Rattus norvegicus)
Construct: made in house; host or cells: E. coli (plasmid pCWnNOS)
Test: NOS enzyme inhibitory assay (hemoglobin capture), nNOS
Format: biochemical
Details: Table 1b; ratio of Ki values iNOS/nNOS
Measured Property: Selectivity n/i
No unit in the answer, please; the number alone is enough.

Task: API: value(readout=Selectivity n/i, system=rat nNOS (Rattus norvegicus)) for record Cc1cc(N)nc(C[C@H]2CNC[C@@H]2NCCNCc2ccc(Cl)cc2Cl)c1.Cl.Cl.Cl.Cl (racemic) [Compound P-66]
Result: 91.6

Task: API: value(readout=Selectivity n/i, system=rat nNOS (Rattus norvegicus)) for record Cc1cc(N)nc(CC2CNCC2NCCNCc2ccc(Cl)c(Cl)c2)c1.Cl.Cl.Cl.Cl (racemic) [Compound P-65]
Result: 57.4

Task: API: value(readout=Selectivity n/i, system=rat nNOS (Rattus norvegicus)) for record Cc1cc(N)nc(C[C@H]2CNC[C@H]2OCCNC(=O)Cc2cccc(F)c2)c1.Cl.Cl (racemic) [Compound P-80]
Result: 3.8

---
Task: API: value(readout=Selectivity n/i, system=rat nNOS (Rattus norvegicus)) for record Cc1cc(N)nc(C[C@@H]2CNC[C@@H]2NCCOCCc2cccc(F)c2)c1 (racemic) [Compound P-78]
Result: 3.5

* * *

Target: rat nNOS (Rattus norvegicus, UniProt P29476)
Construct: made in house; host or cells: E. coli (plasmid pCWnNOS)
Assay: NOS enzyme inhibitory assay (hemoglobin capture), nNOS
Format: biochemical
Conditions: Table 1b; ratio of Ki values iNOS/nNOS
Measured Property: Selectivity n/i

Task: What measured Selectivity n/i goes with Cc1cc(N)nc(C[C@H]2CNC[C@H]2NCCNCc2ccc(C(F)(F)F)cc2)c1.Cl.Cl.Cl.Cl (racemic) [Compound P-50] ?
Result: 71.5

Task: What measured Selectivity n/i goes with Cc1cc(N)nc(CC2CNCC2NCCNCc2ccc(Cl)c(Cl)c2)c1.Cl.Cl.Cl.Cl (racemic) [Compound P-60] ?
Result: 22.6

Task: What measured Selectivity n/i goes with Cl.Cl.Cl.Cl.Nc1nc(CC2CNCC2NCCNCc2ccc(Cl)cc2)cs1 (racemic) [Compound P-82] ?
Result: 2

Task: What measured Selectivity n/i goes with Cc1cc(N)nc(C[C@H]2CNC[C@H]2NC(=O)CNCCc2cccc(F)c2)c1.Cl.Cl.Cl (racemic) [Compound P-77] ?
Result: 26.4

Task: What measured Selectivity n/i goes with Cc1cccc(CNCCN[C@@H]2CNC[C@@H]2Cc2cc(C)cc(N)n2)c1.Cl.Cl.Cl.Cl (racemic) [Compound P-53] ?
Result: 56.7

Task: What measured Selectivity n/i goes with Cc1cc(N)nc(C[C@H]2CNC[C@H]2NCCNCc2ccc(Cl)cc2Cl)c1.Cl.Cl.Cl.Cl (racemic) [Compound P-61] ?
Result: 70

Task: What measured Selectivity n/i goes with Cc1cc(N)nc(C[C@H]2CNC[C@@H]2NCCNCCc2ccc(F)cc2)c1.Cl.Cl.Cl.Cl (racemic) [Compound P-72] ?
Result: 189.9

Task: What measured Selectivity n/i goes with Cc1cccc(CNCCN[C@H]2CNC[C@@H]2Cc2cc(C)cc(N)n2)c1.Cl.Cl.Cl.Cl (racemic) [Compound P-59] ?
Result: 127.1

---
Task: What measured Selectivity n/i goes with Cc1cc(N)nc(C[C@H]2CNC[C@@H]2NCCNCc2ccc(F)cc2)c1.Cl.Cl.Cl.Cl (racemic) [Compound P-57] ?
Result: 31.3

Task: What measured Selectivity n/i goes with Cc1cc(N)nc(CC2CNCC2NCCNCc2cccc(C(F)(F)F)c2)c1.Cl.Cl.Cl.Cl (racemic) [Compound P-52] ?
Result: 65.8

Task: What measured Selectivity n/i goes with Cc1cc(N)nc(CC2CNCC2NCC(C)NCc2ccc(Cl)cc2)c1.Cl.Cl.Cl.Cl (racemic) [Compound P-68] ?
Result: 34.7

Task: What measured Selectivity n/i goes with Cc1cc(N)nc(C[C@H]2CNC[C@H]2N(C)CCNCCc2cccc(F)c2)c1.Cl.Cl.Cl.Cl (racemic) [Compound P-75] ?
Result: 117.3

Task: What measured Selectivity n/i goes with Cc1cc(N)nc(CC2CNCC2NCCNCc2cccc(C(F)(F)F)c2)c1.Cl.Cl.Cl.Cl (racemic) [Compound P-58] ?
Result: 79

Task: What measured Selectivity n/i goes with Cc1cc(N)nc(CC2CNCC2NCCNCCc2ccc(F)cc2)c1.Cl.Cl.Cl.Cl (racemic) [Compound P-70] ?
Result: 170.3

Task: What measured Selectivity n/i goes with Cc1cc(N)nc(C[C@H]2CNC[C@H]2NC[C@H](C)NCc2ccc(Cl)cc2)c1.Cl.Cl.Cl.Cl (racemic) [Compound P-63] ?
Result: 90

Task: What measured Selectivity n/i goes with Cc1cc(N)nc(C[C@H]2CNC[C@@H]2OCCN)c1.Cl.Cl.Cl (racemic) [Compound P-81] ?
Result: 1.7

Task: What measured Selectivity n/i goes with Cc1cc(N)nc(C[C@H]2CNC[C@H]2NCCNCc2ccc(F)cc2)c1.Cl.Cl.Cl.Cl (racemic) [Compound P-51] ?
Result: 55.4

Task: What measured Selectivity n/i goes with Cc1cc(N)nc(CC2CNCC2N(C)CCN(C)CCc2cccc(F)c2)c1.Cl.Cl.Cl.Cl (racemic) [Compound P-74] ?
Result: 46.7

* * *

Target: rat nNOS (Rattus norvegicus)
Construct: made in house; host or cells: E. coli (plasmid pCWnNOS)
Test: NOS enzyme inhibitory assay (hemoglobin capture), nNOS
Assay type: biochemical
Details: Table 1a; apparent Ki calculated from IC50, Km […]; read-out: calc. Ki nNOS
Description: All of the NOS isoforms used were recombinant enzymes overexpressed in E. coli from different sources. Nitric oxide formation from NOS was monitored by the hemoglobin capture assay as described in the literature. After approximately 48 h of post-induction incubation in the dark at 25° C. the cells were pelleted at 5300×g, transferred to 50 mL conical tubes, and stored at −80° C. […] Nitric oxide formation from NOS was monitored by the hemoglobin capture assay as described previously. […]
pKi: −log10 of the molar value.
Would you please tag the item y when its pKi is 5 or above, and n when it is below?

Reference set, count: 3
Task: Item Cl.Cl.Cl.Cl.Nc1cccc(C[C@@H]2CNC[C@@H]2NC[C@@H]2CCCN2)n1 with pKi of 5 or above?
Result: y

Task: Item Nc1cccc(CC2CNCC2NCC(N)Cc2ccccc2)n1 (racemic) [Compound P-31] with pKi of 5 or above?
Result: y

Task: Item CN(C)CCNC1CNCC1Cc1cccc(N)n1 (racemic) [Compound P-15] with pKi of 5 or above?
Result: n

---
Task: Item Nc1cccc(CC2CNCC2NC2CCNC2)n1 (racemic) [Compound P-34] with pKi of 5 or above?
Result: y

* * *

What follows is a collection of IC50 values obtained with UniProt:P29473.
Field format: number, assumed mM, no unit text.

Below, each entry is followed by its recorded IC50 result.
Task: What measured IC50 goes with Nc1cccc(CC2CNCC2NC2CCN(Cc3ccccc3)C2)n1 (racemic) [Compound P-22] ?
Result: 0.748

Task: What measured IC50 goes with Cl.Cl.Nc1cccc(CC2CNCC2O)n1 (racemic) ?
Result: 2.35

Task: What measured IC50 goes with Cl.Cl.Cl.Nc1cccc(C[C@H]2CNC[C@H]2NCCCc2ccccc2)n1 (racemic) ?
Result: 0.609

Task: What measured IC50 goes with Cc1cc(N)nc(C[C@H]2CNC[C@@H]2NCCN)c1.Cl.Cl.Cl.Cl (racemic) ?
Result: 1.81

Task: What measured IC50 goes with Nc1cccc(CC2CNCC2NC2CCN(Cc3ccccc3)C2)n1 (stereo not drawn) [Compound P-37] ?
Result: 1.25

---
Task: What measured IC50 goes with Nc1cccc(CC2CNCC2NC2CCN(Cc3ccccc3)C2)n1 (racemic) [Compound P-21] ?
Result: 1.17

Task: What measured IC50 goes with Nc1cccc(CC2CNCC2NC2CCN(Cc3ccccc3)C2)n1 (stereo not drawn) [Compound P-36] ?
Result: 0.74
